method: soluble on expression in E. coli; label from the status in PepcDB or PDB records

- seq_string: "MKIAFIGEAVSGFGGMETVISNVIHTFENSSPKINCEMFFFCRNDKMDKAWLKEIKYAQSFSNIKLSFLRRAKHVYNFSQWLKETSPDIVICIDVISCLYANKARKKSGKHFTIFSWPHFSLDHKKHAECITYADYHLAISSGIKEQIMARGISAQDISVVYNPVSIKTVIVPPPERDKPAVFLYVGRLKFEGQKRVKDLFDGLARTTGEWQLHIIGDGSDFEKCQAYSRELGIEQRVIWYGWQSAPWQVVQQKIKNVTALLLTSAFEGFPMTLLEAMSYGIPCISSDCMSGPRDMIKPGLNGELYTPGAIDDFVGHLNRVISGEVKYQHDIIPGTIERFYDVLYFKNFNNAIFSKLQK"
  soluble on expression in E. coli: "not soluble"
- seq_string: "MGSDKIHHHHHHMSSEHQLLVGLLKKLKADALVLPTLPEVAMRVQEVVSRPDSSPKQVAEIIGQDAAISARMIKVANSAMYSRGIKAENINAAVTRIGLTQIKAIATSVAMEQLFISTNEMVWEVMDEVWRASIEVTSAACALLLKYSKTHKGCGLNYDTLTLASLVHNIGALPVLTEAEANPHLFTSIEQLRALVRKMQGPLGRAVLKSWDFSPEVTEVVERWADLPYLPEQVTYLDFVRAAAFYTGELRAGHDLEERLDVFLQRGLPVSPEYLGSDEFLDNYHSIKLSYE"
  soluble on expression in E. coli: "not soluble"
- seq_string: "MAHHHHHHMTNKSYPTSLVTTPKVRRKSSEHGTFHNSSPKKKNRDIRDFFTANKCNESVEKSWNNNINKRSYHDSPMNDSPNTTLKFLSKKYKTEIN"
  soluble on expression in E. coli: "soluble"
- seq_string: "MNAPRCLRRLLERQWRQGGWLSTLLRPLAALTGLVVARKRNAYLTGARAAWRAPVPVVVVGNIYVGGTGKTPVVIEVVRQLQARGWTPGVVSRGYGVDVGAAPRVGQGQLAAADYGDEPALIARATGAAIAVHPHRPRAVQALLRAHPGVDVVVSDDGLQHLALARDVEIVVQDERGVGNGRLLPAGPLREPAQRLADVDAIVTNAGRPRAAAAPAAGAPRQLAMWLEPTHAQRVTDGATRTLADLAALPPARLAAAAGIGNPARFFQTLEQAGIRPAHTLALPDHYAYAQSPFTALDADLILVTAKDAIKCAALDDPRLWAVQVGTRLSDPDFGDWLSATLRARQPKLAAALEHHHHHH"
  soluble on expression in E. coli: "not soluble"
- seq_string: "MGHHHHHHSHAESIKNQMTVKEWEKVFEMSQDKNLYHNLCTSLFPTIHGNDEVKRGVLLMLFGGVPKTTGEGTSLRGDINVCIVGDPSTAKSQFLKHVEEFSPRAVYTSGKASSAAGLTAAVVRDEESHEFVIEAGALMLADNGVCCIDEFDKMDVRDQVAIHEAMEQQTISITKAGVKATLNARTSILAAANPISGHYDRSKSLKQNINLSAPIMSRFDLFFILVDECNEVTDYAIARRIVDLHSRIEESIDRVYSLDDIRRYLLFARQFKPKISKESEDFIVEQYKHLRQRDGSGVTKSSWRITVRQLESMIRLSEAMARMHCCDEVQPKHVKEAFRLLNKSIIRVETPDVNLDQEEE"
  soluble on expression in E. coli: "not soluble"
- seq_string: "MAHHHHHHMTNFETFQQFYVRDWTPKARPVDAAASVVAPCDGQVLAVNANVESTSLVQVKGLTYGMRSLLQDTPPPLNTDTHRRVAVVLHMRNKDFHHVIAPLSFACEKSIYVPGSLLPTTSAGYHWIPAVLALNERLILQGRSSDKARLPVYMALVGSTLTGRITLYMDKRVRTNYLDPPAYAVHSPYASKPVVARGERLATFNWGSSVVLVMDVPKSCKPLKRPGDVVKAGEALFQF"
  soluble on expression in E. coli: "not soluble"
- seq_string: "GSVSMSGGFLRDDHLEFALHLHRRLAEAVPDGEVIWSPYSVACALGVLAAGARATTRTELTTLLGTDPAPLLAALDRAVTDSPDLASRTVLWVSADVPVRSSFRATMHDRPDSDVRTADFRTNPEGVRATVNADIADATRGMIRELLPQGAVTPDLRAILTNALWAKARWTTPFEAHLTRAGTFRTPRGPKRVPFMHRTKTMPYATARGWRMVTLHAHDELAVDVLLPPGTNAAAVPTAPLLTALHRRSASTSVELALPRFELTQPHQLVEVLAEAGVRTLFTASADLSGISTVPLYVDTVIHQARLRVDERGAEGAAATAAMMLLAGAMPPRRTIRFSVDRPFHIVVRRRGAILFLGSIADPHDPGPAQ"
  soluble on expression in E. coli: "soluble"
- seq_string: "MIQRFIELGEGYSDIYELIALAKANRHRLSGFFVFHTVKKGQAVVSLAIVLHPTDPGDFQPLYICREGIPDPSVKPNKRYELFMETAKELGMDVIHLDVKPSTMFAELDLYYQHLIGIMRMNRFIPPLQ"
  soluble on expression in E. coli: "not soluble"
- seq_string: "MGSDKIHHHHHHNGPIVKGSKNYITKKENLEHFNDISMSGSANIIYQQDSSSRIEIYGSDNIVELLETKVNGKTLNIKFKKNVNIIDKGKLEIKVFSPDLNGLTLNGSGGILFANGIHTEGDLKVTINGSGNLGGSTFDTGHLAISIHGSGDVRLKQIDSKTCSASISGSGNITLDGMTGAAKYNISGSGNIKAADLEATDVYAGISGSGNISCFVNGKLGGHVSGSGNVAYKGNPQAIDFPHKKLRKLD"
  soluble on expression in E. coli: "not soluble"
- seq_string: "MIYTLENQHLKISLSNHGGELHSIKGKKDNTEFLWSGDEAYWKYHAPILFPIVGKVFNGKYTVDGITYELPQHGLARVRDFEMIEQTKNSISFELKYSEDTLKVYPFKFSLIIKYTLNDINLSIDYIVKNLDNKEMYFSIGAHPAFMCPIENDKFDDYYFEFNKKENASIMQLVGPGYFSKEEKPYLKDEHIINLSTDLFKNDALVFKNLKSNKISLKSKNHKKYLEFDFGEFPYLGLWTKDTGAPFVCIEPWFGHADFDGFNGEFKDKAAIQSLMPNKEFHCNYNISFFELEHHHHHH"
  soluble on expression in E. coli: "soluble"
- seq_string: "MGSDKIHHHHHHMQTLEQLTSPEHSAWITLSQWIDNARNHCEVIKKDQSSAERELFTMQMPTSSPMGAVIYETGGILIHYGWLRILGSGSFKLPRGLMDWNFSKSFSESGEKPKYLLVADDVIGGYFALNGGSLGNNIGKIYYYSSKDLTWHNLNFTYTEFLAWVLNGDVEAFYQGLFWKNWQDDVKQLDGNQVFVFTPDLNQDRKIAIDERQKQEVNIETHYQANFAEKNKFDLAYSVA"
  soluble on expression in E. coli: "not soluble"

====

method: soluble on expression in E. coli; label from the status in PepcDB or PDB records
experimental_readout: soluble on expression in E. coli

- seq_string: "MAHHHHHHMMDDQSSTSGGPQEGRDADHRQNHGNVLFVGNLPFQTPWQHVKDHFRKAGKVRYTDLIADRMGRPKGSALVTMVTAEGAQRAIRMYNETDFEGRRLIVRLFDDGPRPPIVQRGMMPQYDRQTQQQQPQQQSQRFRGYTGASSGGSNYNNTTNFGRRADYMGRGGYTMEEDLNATSLNDMGDSVPKPRSQQVNEFGRKLFVSNLPFDCTSSALRETFQQVGNVERAEVILGRNGKSRGMGIVVMRTEKETRLAIEEFDGIEMANRAMSVRLDNKTTA"
  experimental_readout: "soluble on expression in E. coli"
  measured_value: "soluble"
- seq_string: "MTISVEKPIFEEEVSAFEKSGDNIGELKLDGGFSMPKMDTNDDEAFLAPEMNAFGRQFRDYDVESERQKGVEEFYRLQHINQTVDFVKKMRAEYGKLDKMVMSIWECCELLNEVVDESDPDLDEPQIQHLLQSAEAIRKDYPNEDWLHLTALIHDLGKVITLPQFGGLPQWAVVGDTFPVGCAFDESNVHHKYFVENPDFHNETYNTKNGIYSEGCGLNNVMMSWGHDDYMYLVAKENGSTLPSAGQFIIRYHSFYPLHTAGEYTHLMNEEDKENLKWLHVFNKYDLYSKSKVHVDVEKVKPYYMSLIKKYFPENLRW"
  experimental_readout: "soluble on expression in E. coli"
  measured_value: "soluble"
- seq_string: "MGSDKIHHHHHHMIYNYGFLDENTKKEIRRKILKAISIPGYQVPFGSRELPIAKGWGTGGLQLTLSLIGKNDVVKVIDQGSDDSTNACNIRSFIASVSNVETTKDTLEATLIQTRHRIPEEKLKSNQILIFQVPIPETLRIVEPSEVETRRMHSEEDYSRMWVYLYEDIVRFNDISIAVEYPCKVNDRYLMNPSPIPRFDIKKLNMSDNLFLFGAGREKRIYAIPPYTKVEPLEFEDYKFEEEKFEGKYCSLCNSTNTFLDEVYDSDTNEKYYSCSDTSYCEKVRLKNNSIDVTIGGTWNE"
  experimental_readout: "soluble on expression in E. coli"
  measured_value: "not soluble"
- seq_string: "MGHHHHHHSHMDSTTVNYFALFEVISHSFVRKLAPNEFPHKLYIQNYTSAVPGTCLTIRKWLFTTEEEILLNDNDLAVTYFFHQAVDDVKKGYIKAEEKSYQLQKLYEQRKMVMYLNMLRTCEGYNEIIFPHCACDSRRKGHVITAISITHFKLHACTEEGQLENQVIAFEWDEMQRWDTDEEGMAFCFEYARGEKKPRWVKIFTPYFNYMHECFERVFCELKWRKEEY"
  experimental_readout: "soluble on expression in E. coli"
  measured_value: "not soluble"
- seq_string: "MSLDEKLRTSGVQVIGDIAWGTHFCQFYRTQEELVNVVCPYLKAGLEGNELCIWALPRDFETKKEAEGPLRRTIPKLDIYLEKGQMEIISYKDRYAEKEIPDSKKALENLIKKADYALLNGYSGLRLVQDTSWLKNDWKNLTGYEEELDIAIENRRITALCTYSSGKFDTDETIYAALSHRFVLVKKEGNWEKVENPRLKKAEERVIQPSEEVETKTEEENENLKKLLEERTVELTEAYKSLKVNEKQFLQIRKMTHIGNWKWDILTGELHWSDEVYRIFGRDPERFKATCDAFLGSVHPDDREYLINSIKKDFDEQIRNIDYRIVLPDGEERTVRTRVEITFDEEGHHHHHH"
  experimental_readout: "soluble on expression in E. coli"
  measured_value: "not soluble"
- seq_string: "MIRVHSYESMGTFDGPGLRLVVFLQGCNFRCLYCANPDTIDTKGESTETAIDEIVRMAVSQKAFFGKKGGVTFSGGEPTLQAKALIPLFQRLKEQNIHICIDTNGSIWNEEVEELLKWTDLVLLDIKEFNNVRHRQLTERSNEQTIRTAEWLEKNGKPFWLRYVLVPGYSSFEEDIRALGEHFKNYHMIQRVEILPYHTLGVHKYEAMGKEYKLNGIKENTLEQLETAKTLFGEYFNTVYLN"
  experimental_readout: "soluble on expression in E. coli"
  measured_value: "not soluble"
- seq_string: "MQEVHKWHNDLTGKKLVENLKKNLFDAYYFEDGSEVSKYIMNYVGTGTKIGFGGSVTVQSLNIAEQAMEKGAVILDHNDASLTQEEKMDIMRQQLTSDIFISSTNAITASGELVNIDGVGNRVSAIVFGPKKVIIVVGLNKLCKDVETAFERIKMQAAPKNMKRLGFLNPCIKTGYCVNCDAETRACRIYSVIKRRPMLTDMTVLVVGKSLGFLEHHHHHH"
  experimental_readout: "soluble on expression in E. coli"
  measured_value: "soluble"
- seq_string: "MSLSKMEINKRALKENMALLACPICGEAFEFKEPQSFVCLEGHGFDIAKPGYVHLLKQAHKTKYDQALFESRKKVIASGFFEKLIERVTEIIAEKKKEQLVLYDAGCGEGSHLARVVSNLQATGVNVQAVGLDIAKEGVKQAARDYPGTSWTVADLANCPNQAETADVILNILSPSNYVEFKRLLKKDGFLLKVVPEANYLRELREFIYVDEKSSYSNESVTSRLAEKLSVEHVERVTYKAPIAKELFADFLEMTPLGWHIEADKKSELLGNPPEELTVDLQIIIANRAHLLEGHHHHHH"
  experimental_readout: "soluble on expression in E. coli"
  measured_value: "soluble"
- seq_string: "MAMQFVMRLAREFRRADWRRMLSDMSATELGEWGDYFRMQSFSDVWMDAQFASLKALIVRMVSGSSDAAVADFSLLPEENGIPERTDEELMHLGEGISGGVRYGPDSQPGHLEHHHHHH"
  experimental_readout: "soluble on expression in E. coli"
  measured_value: "not soluble"
- seq_string: "MSLAVFAARKWKYNEDKMMTIVRIDAEARWSDVVIHNNTLYYTGVPENLDADAFEQTANTLAQIDAVLEKQGSNKSSILDATIFLADKNDFAAMNKAWDAWVVAGHAPVRCTVQAGLMNPKYKVEIKIVAAVEGHHHHHH"
  experimental_readout: "soluble on expression in E. coli"
  measured_value: "soluble"
- seq_string: "AMNAYYIQDRLEAQSWARHYQQLAREEKEAELADDMEKGIPQHLFESLCIDHLQRHGASKKSITRAFDDDVEFQERMAEHIRYMVETIAHHQVDIDSEV"
  experimental_readout: "soluble on expression in E. coli"
  measured_value: "soluble"
- seq_string: "MSLKIGFFIMNIGSAGGTERVSINVANALAKQGYDVSFISIGGNKPFFQVDEKINIYAMNKLPYSLKKDYFSITKKLRELVKELQLDTLIVVDGAIMLFSALALVNLNIKHILWEHYSFNFTGNRLVRTLGKYLAVTTCDKIVTLTEAEKTLWQEKFKTNNIISIANPNTLLPKNKLAKLENKTILSVGHLFSYKGFDYLLKVWQVLAKKYPDWNLKIVGSGEEEENLKNLAKALDIEDSVNFIPRTNDVSFYYESSSIYCLPSQTEGLPLVVIEAMAFGLPIVAFNCSPGVKQLVEHKENGFLCEQNNIEEMVKGLDLLINNPELYLQMSDKSRLMSEDYGIEKIIEEWKGILEGHHHHHH"
  experimental_readout: "soluble on expression in E. coli"
  measured_value: "soluble"
